Biological target: UniProt:Q92993
Sequence (Q92993 whole entry): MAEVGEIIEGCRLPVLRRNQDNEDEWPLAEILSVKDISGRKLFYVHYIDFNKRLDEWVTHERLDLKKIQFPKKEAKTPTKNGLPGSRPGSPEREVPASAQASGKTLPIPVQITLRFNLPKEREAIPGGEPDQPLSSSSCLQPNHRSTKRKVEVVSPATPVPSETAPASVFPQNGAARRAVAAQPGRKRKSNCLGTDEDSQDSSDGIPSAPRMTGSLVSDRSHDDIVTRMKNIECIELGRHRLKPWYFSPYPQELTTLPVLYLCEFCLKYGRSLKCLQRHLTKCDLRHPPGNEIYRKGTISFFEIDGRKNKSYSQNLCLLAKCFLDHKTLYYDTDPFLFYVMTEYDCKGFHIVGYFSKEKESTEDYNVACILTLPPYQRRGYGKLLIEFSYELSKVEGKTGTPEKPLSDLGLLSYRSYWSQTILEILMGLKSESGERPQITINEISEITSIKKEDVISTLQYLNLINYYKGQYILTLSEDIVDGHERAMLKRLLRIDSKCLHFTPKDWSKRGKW
experimentalEndpoint: IC50 (µM)
Dear colleague, please return just the value in µM, with no unit written.

Reported UniProt:Q92993 IC50 for item CC1=NN(c2ccc(C(=O)O)cc2)C(=O)/C1=C\c1ccc(-c2cc(C)c(C)cc2[N+](=O)[O-])o1 was 20.4

* * *

Molecular target: pCAF (Homo sapiens, UniProt Q92831)
Sequence (Q92831 whole entry): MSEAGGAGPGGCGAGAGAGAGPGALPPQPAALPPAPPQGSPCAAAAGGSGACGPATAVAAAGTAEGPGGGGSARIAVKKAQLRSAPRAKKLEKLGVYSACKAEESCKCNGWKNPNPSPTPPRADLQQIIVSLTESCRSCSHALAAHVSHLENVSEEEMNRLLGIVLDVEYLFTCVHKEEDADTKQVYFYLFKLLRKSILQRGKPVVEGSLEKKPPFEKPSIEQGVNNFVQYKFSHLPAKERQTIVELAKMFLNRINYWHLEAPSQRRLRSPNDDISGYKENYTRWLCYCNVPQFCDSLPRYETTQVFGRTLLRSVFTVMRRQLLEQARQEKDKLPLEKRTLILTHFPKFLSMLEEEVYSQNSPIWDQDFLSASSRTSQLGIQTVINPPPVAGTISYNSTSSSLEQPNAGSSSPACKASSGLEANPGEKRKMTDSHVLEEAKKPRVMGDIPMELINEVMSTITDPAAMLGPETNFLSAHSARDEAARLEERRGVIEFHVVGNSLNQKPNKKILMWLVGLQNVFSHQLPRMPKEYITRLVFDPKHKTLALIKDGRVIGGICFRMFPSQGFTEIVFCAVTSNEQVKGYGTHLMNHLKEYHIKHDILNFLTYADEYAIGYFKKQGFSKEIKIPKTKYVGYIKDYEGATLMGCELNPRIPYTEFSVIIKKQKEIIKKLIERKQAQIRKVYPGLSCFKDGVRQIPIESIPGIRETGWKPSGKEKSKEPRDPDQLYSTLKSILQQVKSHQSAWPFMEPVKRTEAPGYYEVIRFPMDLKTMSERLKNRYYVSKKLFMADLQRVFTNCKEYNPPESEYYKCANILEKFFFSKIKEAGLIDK
experimentalEndpoint: IC50 (µM)
Dear colleague, please return just the value in µM, with no unit written.

Reported pCAF (Homo sapiens, UniProt Q92831) IC50 for item CCCCCCCCCCCCCCCc1cccc(O)c1C(=O)O [Anacardic Acid] was 38.8

* * *

Tested on: NB4 cells
Experiment: Cell death induction in NB4 cells
Assay type: cell-based, human
Details: Homo sapiens, NB-4, 30 h
// boundary case: cytotoxicity at 3 µM equal to 9% maps to NOT MET; strictly smaller maps to MET

The examples below pair each entry with its known result.
>>> answerlabel("O=C1/C(=C/c2cccc(Br)c2)CN(CC(=O)c2ccccc2)C/C1=C\\c1cccc(Br)c1")
"NOT MET"
>>> answerlabel("O=C1/C(=C/c2cccc(Br)c2)CCC/C1=C\\c1cccc(Br)c1")
"MET"
>>> answerlabel("O=C1/C(=C/c2ccc(O)cc2Br)CN(Cc2ccccc2)C/C1=C\\c1ccc(O)cc1Br")
"MET"
>>> answerlabel("O=C1/C(=C/c2cccc(Br)c2)COC/C1=C\\c1cccc(Br)c1")
"MET"
>>> answerlabel("O=C1/C(=C/c2cccc(Br)c2)CN(Cc2ccccc2)C/C1=C\\c1cccc(Br)c1")
"NOT MET"
>>> answerlabel("O=C1/C(=C/c2cccc(Br)c2)CN(CCCc2ccccc2)C/C1=C\\c1cccc(Br)c1")
"NOT MET"

Request: Given O=C1/C(=C/c2cc(Br)cc(Br)c2)CN(Cc2ccccc2)C/C1=C\c1cc(Br)cc(Br)c1 , is recorded cytotoxicity at 3 µM strictly lower than 9%?
Response: MET

Request: Given O=C(/C=C/c1ccc(Br)cc1)/C=C/c1ccc(Br)cc1 , is recorded cytotoxicity at 3 µM strictly lower than 9%?
Response: MET

* * *

Target: CBP (Homo sapiens, UniProt Q92793)
Sequence (Q92793 whole entry): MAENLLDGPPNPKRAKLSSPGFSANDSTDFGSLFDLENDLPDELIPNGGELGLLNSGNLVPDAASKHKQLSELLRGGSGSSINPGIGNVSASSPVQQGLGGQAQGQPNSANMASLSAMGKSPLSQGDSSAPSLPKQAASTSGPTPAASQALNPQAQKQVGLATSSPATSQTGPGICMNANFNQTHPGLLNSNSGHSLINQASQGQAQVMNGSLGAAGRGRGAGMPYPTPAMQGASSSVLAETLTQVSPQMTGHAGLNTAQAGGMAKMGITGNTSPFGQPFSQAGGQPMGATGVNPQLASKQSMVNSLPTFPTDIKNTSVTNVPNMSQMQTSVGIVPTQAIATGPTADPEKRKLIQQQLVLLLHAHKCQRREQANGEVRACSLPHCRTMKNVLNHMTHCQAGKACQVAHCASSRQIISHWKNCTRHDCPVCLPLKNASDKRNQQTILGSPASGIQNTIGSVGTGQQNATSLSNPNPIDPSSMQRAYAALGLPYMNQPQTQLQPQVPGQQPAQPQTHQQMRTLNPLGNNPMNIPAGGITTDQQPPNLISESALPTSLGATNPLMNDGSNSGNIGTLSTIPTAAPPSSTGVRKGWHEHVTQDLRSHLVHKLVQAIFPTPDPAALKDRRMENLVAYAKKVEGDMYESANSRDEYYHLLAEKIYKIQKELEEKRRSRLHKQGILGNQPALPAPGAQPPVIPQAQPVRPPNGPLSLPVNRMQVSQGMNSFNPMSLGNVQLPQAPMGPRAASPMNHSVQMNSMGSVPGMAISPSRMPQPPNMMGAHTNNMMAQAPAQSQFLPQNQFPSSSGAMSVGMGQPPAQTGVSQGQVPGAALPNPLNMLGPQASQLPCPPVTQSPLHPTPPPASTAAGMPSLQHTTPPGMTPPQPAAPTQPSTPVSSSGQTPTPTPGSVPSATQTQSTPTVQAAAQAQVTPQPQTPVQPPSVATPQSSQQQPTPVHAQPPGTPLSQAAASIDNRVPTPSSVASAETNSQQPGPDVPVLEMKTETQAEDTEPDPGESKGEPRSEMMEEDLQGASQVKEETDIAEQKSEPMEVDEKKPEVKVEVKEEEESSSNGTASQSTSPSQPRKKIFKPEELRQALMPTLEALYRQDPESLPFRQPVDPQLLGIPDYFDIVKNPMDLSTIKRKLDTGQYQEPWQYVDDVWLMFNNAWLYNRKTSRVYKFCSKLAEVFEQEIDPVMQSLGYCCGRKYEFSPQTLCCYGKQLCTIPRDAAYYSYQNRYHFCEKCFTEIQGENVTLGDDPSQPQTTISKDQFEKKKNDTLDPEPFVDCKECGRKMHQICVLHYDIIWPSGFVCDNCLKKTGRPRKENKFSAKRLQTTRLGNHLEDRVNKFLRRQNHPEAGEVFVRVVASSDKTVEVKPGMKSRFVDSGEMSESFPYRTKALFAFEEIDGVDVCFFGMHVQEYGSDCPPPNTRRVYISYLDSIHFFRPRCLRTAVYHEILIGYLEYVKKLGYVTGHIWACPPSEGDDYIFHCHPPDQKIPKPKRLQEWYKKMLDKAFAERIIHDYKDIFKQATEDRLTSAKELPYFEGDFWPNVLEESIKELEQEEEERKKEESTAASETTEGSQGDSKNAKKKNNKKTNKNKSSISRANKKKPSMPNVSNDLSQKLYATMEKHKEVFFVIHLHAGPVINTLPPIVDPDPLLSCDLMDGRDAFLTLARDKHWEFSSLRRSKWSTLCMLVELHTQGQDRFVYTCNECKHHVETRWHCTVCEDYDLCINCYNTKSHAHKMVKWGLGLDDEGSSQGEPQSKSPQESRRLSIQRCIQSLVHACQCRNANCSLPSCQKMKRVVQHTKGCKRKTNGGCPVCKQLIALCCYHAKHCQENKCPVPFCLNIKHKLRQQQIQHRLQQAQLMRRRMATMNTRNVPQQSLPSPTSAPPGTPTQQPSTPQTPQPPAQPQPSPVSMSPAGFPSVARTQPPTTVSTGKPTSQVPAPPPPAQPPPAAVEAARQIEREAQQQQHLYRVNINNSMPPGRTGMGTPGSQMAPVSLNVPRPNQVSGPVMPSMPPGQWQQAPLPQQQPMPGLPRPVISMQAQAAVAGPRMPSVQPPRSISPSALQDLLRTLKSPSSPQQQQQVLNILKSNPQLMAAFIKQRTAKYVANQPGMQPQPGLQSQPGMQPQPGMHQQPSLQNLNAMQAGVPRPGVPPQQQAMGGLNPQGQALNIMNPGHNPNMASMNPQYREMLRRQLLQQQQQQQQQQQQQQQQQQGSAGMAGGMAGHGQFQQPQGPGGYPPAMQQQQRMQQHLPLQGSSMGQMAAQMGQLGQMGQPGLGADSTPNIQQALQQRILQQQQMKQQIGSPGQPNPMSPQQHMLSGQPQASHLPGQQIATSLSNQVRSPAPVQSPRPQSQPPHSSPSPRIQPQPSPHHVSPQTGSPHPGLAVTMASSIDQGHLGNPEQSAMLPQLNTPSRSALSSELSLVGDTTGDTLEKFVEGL
experimentalEndpoint: IC50 (nM)
Dear colleague, please return just the value in nM, with no unit written.

Reported CBP (Homo sapiens, UniProt Q92793) IC50 for item CC1=NN(c2ccc(C(=O)O)cc2)C(=O)/C1=C\c1ccc(-c2cc(C)c(C)cc2[N+](=O)[O-])o1 [C646] was 78.7

* * *

Biological target: GCN5 (Homo sapiens, UniProt Q92830)
Sequence (Q92830 whole entry): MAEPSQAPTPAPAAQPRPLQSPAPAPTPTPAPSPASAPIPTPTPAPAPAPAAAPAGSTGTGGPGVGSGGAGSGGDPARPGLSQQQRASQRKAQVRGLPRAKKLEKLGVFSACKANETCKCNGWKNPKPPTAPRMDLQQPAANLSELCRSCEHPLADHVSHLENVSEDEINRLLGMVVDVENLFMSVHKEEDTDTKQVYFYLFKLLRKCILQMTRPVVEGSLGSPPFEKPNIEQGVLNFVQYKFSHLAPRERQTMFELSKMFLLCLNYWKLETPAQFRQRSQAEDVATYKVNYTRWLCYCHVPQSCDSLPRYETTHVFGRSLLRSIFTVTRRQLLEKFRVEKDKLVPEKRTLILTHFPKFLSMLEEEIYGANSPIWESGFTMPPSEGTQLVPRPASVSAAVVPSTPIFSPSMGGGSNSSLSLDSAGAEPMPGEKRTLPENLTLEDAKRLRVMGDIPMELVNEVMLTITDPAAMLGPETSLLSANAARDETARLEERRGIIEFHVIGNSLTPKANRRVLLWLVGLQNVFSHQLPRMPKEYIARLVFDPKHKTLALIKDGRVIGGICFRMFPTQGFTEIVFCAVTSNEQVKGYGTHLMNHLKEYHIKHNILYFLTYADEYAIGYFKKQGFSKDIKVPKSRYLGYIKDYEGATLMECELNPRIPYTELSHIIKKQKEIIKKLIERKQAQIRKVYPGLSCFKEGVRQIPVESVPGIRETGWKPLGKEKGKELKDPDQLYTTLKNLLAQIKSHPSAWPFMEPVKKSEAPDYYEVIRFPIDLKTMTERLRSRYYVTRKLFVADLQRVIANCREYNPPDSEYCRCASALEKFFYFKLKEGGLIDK
experimentalEndpoint: IC50 (µM)
Dear colleague, please return just the value in µM, with no unit written.

Sample CCCCCCCCCCCCCCCc1cccc(O)c1C(=O)O ; IC50 observed: 38.6

* * *

Reported cytotoxicity at 3 µM values for the following compounds.
Tested on: NB4 cells
Test: Cell death induction in NB4 cells
Type: cell-based, human
Details: Homo sapiens, NB-4, 30 h
Dear colleague, please return just the value in %, with no unit written.

Reference set, count: 5
>>> quantitativeresult("O=C1/C(=C/c2cccc(Br)c2)CN(C(=O)CCc2ccccc2)C/C1=C\\c1cccc(Br)c1")
28.9
>>> quantitativeresult("O=C1/C(=C/c2ccccc2Br)CN(Cc2ccccc2)C/C1=C\\c1ccccc1Br")
30.3
>>> quantitativeresult("O=C1/C(=C/c2cccc(Br)c2)CN(CCc2ccccc2)C/C1=C\\c1cccc(Br)c1")
62.5
>>> quantitativeresult("O=C1/C(=C/c2cccc(Br)c2)CN(C(=O)c2ccccc2)C/C1=C\\c1cccc(Br)c1")
13.2
>>> quantitativeresult("O=C1/C(=C/c2cccc(Br)c2)CSC/C1=C\\c1cccc(Br)c1")
52.7

Moving on to the next compound.
Sample CN1C/C(=C\c2cccc(Br)c2)C(=O)/C(=C/c2cccc(Br)c2)C1 ; cytotoxicity at 3 µM observed: 36
